biological target: human liver microsomal cytochrome P450 2E1 (CYP2E1) (Homo sapiens); assay: Chlorzoxazone hydroxylation inhibition (6-OH-CZX by LC/MS/MS); details: tested concentration 66 μM
Sequence (P05181 whole entry): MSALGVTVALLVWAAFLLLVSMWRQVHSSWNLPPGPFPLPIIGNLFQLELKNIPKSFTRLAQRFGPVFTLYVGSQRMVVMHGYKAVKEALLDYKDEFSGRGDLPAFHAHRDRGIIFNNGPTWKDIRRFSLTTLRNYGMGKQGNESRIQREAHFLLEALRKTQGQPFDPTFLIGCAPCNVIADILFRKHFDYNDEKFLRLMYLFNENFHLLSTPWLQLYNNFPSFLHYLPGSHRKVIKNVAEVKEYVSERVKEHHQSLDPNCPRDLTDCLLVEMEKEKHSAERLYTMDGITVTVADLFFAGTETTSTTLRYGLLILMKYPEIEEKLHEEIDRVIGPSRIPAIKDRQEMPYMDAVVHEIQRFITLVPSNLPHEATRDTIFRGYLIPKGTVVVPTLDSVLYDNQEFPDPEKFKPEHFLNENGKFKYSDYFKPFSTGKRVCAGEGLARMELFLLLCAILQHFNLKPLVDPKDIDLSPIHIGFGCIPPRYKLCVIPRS
Give measured Inhibition of CYP 2E1 (%) for each item. Keep answers brief.
Could you give the number and then its unit, please?

Recorded Inhibition of CYP 2E1 (%), per entry:
Sample Oc1cc(O)c2c(c1)O[C@H](c1cc(O)c(O)c(O)c1)[C@H](O)C2 [(−)-Epigallocatechin] — what was its Inhibition of CYP 2E1 (%)?
57.08 ± 1.85%

Endpoint output: Inhibition of CYP 2E1 (%) of COc1ccc([C@@H]2CC(=O)c3c(O)cc(O[C@@H]4O[C@H](CO)[C@@H](O)[C@H](O)[C@H]4O[C@@H]4O[C@@H](C)[C@H](O)[C@@H](O)[C@H]4O)cc3O2)cc1O [Neohesperidin] . Value?
58.70 ± 1.06%

Name the reported Inhibition of CYP 2E1 (%) value associated with the compound COc1c(O)cc2oc(Oc3ccc(O)cc3)cc(=O)c2c1O [Capillarisin]
57.31 ± 1.31%

Endpoint output: Inhibition of CYP 2E1 (%) of O=C(O[C@@H]1Cc2c(O)cc(O)cc2O[C@@H]1c1cc(O)c(O)c(O)c1)c1cc(O)c(O)c(O)c1 [(−)-Epigallocetechin-3-gallate] . Value?
72.16 ± 1.02%

Please give Inhibition of CYP 2E1 (%) for each item listed below.
1. O=c1cc(-c2ccc(O)c(O)c2)oc2cc(O[C@@H]3O[C@H](CO)[C@@H](O)[C@H](O)[C@H]3O)cc(O)c12 [Luteolin-7-Glucoside]
2. COc1ccc([C@@H]2CC(=O)c3c(O)cc(O[C@@H]4O[C@H](CO[C@@H]5O[C@@H](C)[C@H](O)[C@@H](O)[C@H]5O)[C@@H](O)[C@H](O)[C@H]4O)cc3O2)cc1O [Hesperidin]
3. C=C(C)C1CC=C(C)CC1 (single isomer, unassigned; (+)) [(+)-Limonene]

60.26 ± 1.11%
58.57 ± 3.78%
63.64 ± 2.74%

---

molecular target: CYP2E1 (Homo sapiens, UniProt P05181); test: Chlorzoxazone hydroxylation inhibition (6-OH-CZX by LC/MS/MS); conditions: human, microsomes, pH 7.4
Sequence (P05181 whole entry): as above
Assignment: determine reported inhibition at 30 min, 33 µM for the given compounds.
Answers are plain numbers, in %.

Reference set, count: 5
Param item = O=c1c(-c2ccc(O)cc2)coc2cc(O)cc(O)c12 ; retrieve measured inhibition at 30 min, 33 µM.
30.9

Suppose we examine the compound O=c1cc(-c2ccc(O)cc2)oc2cc(O)c([C@@H]3O[C@H](CO)[C@@H](O)[C@H](O)[C@H]3O)c(O)c12 ; what inhibition at 30 min, 33 µM value has been reported?
67.6

Request the reported inhibition at 30 min, 33 µM associated with COc1cc(C2Oc3cc([C@H]4Oc5cc(O)cc(O)c5C(=O)[C@@H]4O)ccc3OC2CO)ccc1O (stereo partly drawn)
37.1

Can you look up the measured inhibition at 30 min, 33 µM of O=C(CCc1ccc(O)cc1)c1c(O)cc(O)cc1O for me?
39.8

What value of inhibition at 30 min, 33 µM has been recorded for this entry: O=c1cc(-c2ccc(O)cc2)oc2cc(O)cc(O)c12
36.8

Can you give me inhibition at 30 min, 33 µM for all of these, one by one?
1. O=c1c(O)c(-c2cc(O)c(O)c(O)c2)oc2cc(O)cc(O)c12
2. COc1ccc([C@@H]2CC(=O)c3c(O)cc(O)cc3O2)cc1O
3. O=C(O)c1cc(O)c(O)c(O)c1
4. O=c1c(-c2ccc(O)cc2)coc2cc(O)ccc12

1: 59.2; 2: 34.3; 3: 18.8; 4: 76.3

Data origin, for the record: patent US8304394B2
